Molecular target: ZER1 (UniProt Q7Z7L7)
Sequence (Q7Z7L7 whole entry, looked up): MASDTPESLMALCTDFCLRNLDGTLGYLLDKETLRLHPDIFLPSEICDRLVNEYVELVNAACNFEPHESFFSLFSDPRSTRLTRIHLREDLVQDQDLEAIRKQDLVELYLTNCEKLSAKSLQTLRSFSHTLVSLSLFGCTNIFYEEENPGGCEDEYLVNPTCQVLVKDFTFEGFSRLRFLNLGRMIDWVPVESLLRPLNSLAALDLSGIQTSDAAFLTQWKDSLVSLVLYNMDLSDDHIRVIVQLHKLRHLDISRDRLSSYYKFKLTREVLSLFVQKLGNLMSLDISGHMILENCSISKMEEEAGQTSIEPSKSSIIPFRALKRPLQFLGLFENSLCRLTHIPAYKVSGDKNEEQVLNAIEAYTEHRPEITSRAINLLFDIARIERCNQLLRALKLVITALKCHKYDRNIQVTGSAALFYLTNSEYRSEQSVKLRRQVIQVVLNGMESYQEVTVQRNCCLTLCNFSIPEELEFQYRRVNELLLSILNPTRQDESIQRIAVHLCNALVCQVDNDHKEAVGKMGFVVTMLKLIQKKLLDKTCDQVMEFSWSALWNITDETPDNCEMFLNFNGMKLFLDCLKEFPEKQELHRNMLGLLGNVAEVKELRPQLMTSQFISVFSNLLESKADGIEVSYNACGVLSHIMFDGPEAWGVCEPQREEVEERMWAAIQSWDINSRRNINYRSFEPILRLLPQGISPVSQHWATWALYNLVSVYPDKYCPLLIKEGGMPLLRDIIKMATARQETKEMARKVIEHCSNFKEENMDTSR
Assay: log2 fold change, soluble protein after heating vs DMSO (PISA); higher = thermal stabilisation; K562 cells, 10 uM, 30 min; active = over 0.2 and 3.5 SD of the protein, either way, in both replicates (recomputed)
Targets with a hit are over-represented here; the source holds about 7,900 in all. About 0.6% of all pairs of compound and target were hits.
# thresholds on log2 fold change define classes: lower band = under -0.03, central band = from -0.03 up to 0.03, upper band = 0.03 and over

Some solved entries appear below for comparison.
[
  {
    "STRUCTURE SMILES": "CNC(=O)c1ccccc1Nc1nc(Nc2ccc(N3CCOCC3)cc2OC)ncc1Cl",
    "SYSTEM": "ZER1 (UniProt Q7Z7L7)",
    "CLASSIFICATION": "lower band"
  },
  {
    "STRUCTURE SMILES": "Cc1ncc(-c2ccnc(Nc3ccc(S(C)(=O)=O)cc3)n2)n1C(C)C",
    "SYSTEM": "ZER1 (UniProt Q7Z7L7)",
    "CLASSIFICATION": "upper band"
  },
  {
    "STRUCTURE SMILES": "Cc1nc(Nc2ncc(C(=O)Nc3c(C)cccc3Cl)s2)cc(N2CCN(CCO)CC2)n1",
    "SYSTEM": "ZER1 (UniProt Q7Z7L7)",
    "CLASSIFICATION": "lower band"
  }
]

Query :: State the class of the molecule shown: CCCCN(Cc1ccc(C(=O)NO)cc1)C(=O)Nc1ccccc1
Result :: central band

Query :: Repeat with CNC(=O)c1ccc(Nc2ncc(C(F)(F)F)c(NCc3nccnc3N(C)S(C)(=O)=O)n2)cc1
Result :: central band

Query :: Repeat with Cc1ccc(C(=O)N(CCCN)[C@@H](c2nc3cc(Cl)ccc3c(=O)n2Cc2ccccc2)C(C)C)cc1
Result :: upper band

Query :: Repeat with COc1cc(C(=O)O)ccc1NC(=O)[C@@H]1N[C@@H](CC(C)(C)C)[C@](C#N)(c2ccc(Cl)cc2F)[C@H]1c1cccc(Cl)c1F
Result :: lower band

Query :: Repeat with O=C(Nc1cccc(Nc2ncc(Br)c(NCCc3cnc[nH]3)n2)c1)N1CCCC1
Result :: central band

Query :: Repeat with CS(=O)(=O)c1ccc(-c2cnc(N)c(C(=O)Nc3ccccc3)n2)cc1
Result :: upper band
